Values from patent US20240239875A1

ASSAYED_TARGET: SARS-CoV-2 prefusion stabilized trimer protein (WIV02 isolate spike protein) (UniProt P0DTC2 14-1213)
RUN_DESCRIPTION: ELISA
READOUT_KIND: pEC50
Scale: pEC50 equals -log10([C]), with [C] in mol/L.

>  <BINDER>
10-I12-A (antibody, V domains shown) VH: RVQLQQSGPELVRPGTSVKISCKASGYTFTDSYINWVTQRPGQGLDWIGWIFPGNDNTYYNEKFEGKATLTLDKSSSTAYMLLSSLTSEDSAVYFCARSGGLRLGFAYWGQGTLVTVSA VL: NIVLTQSPASLAVSRGQRATISCRASESVDSYGHSFIHWYQQKPGQPPKILIYLASKLESGVPARFSGSGSRTDFTLTIDPVEADDAATYYCQQNNEDPWTFGGGTKLEIK

>  <pEC50>
7.19

$$$$

**Q:** Endpoint output: pEC50 of 1-B11-A (antibody, V domains shown) VH: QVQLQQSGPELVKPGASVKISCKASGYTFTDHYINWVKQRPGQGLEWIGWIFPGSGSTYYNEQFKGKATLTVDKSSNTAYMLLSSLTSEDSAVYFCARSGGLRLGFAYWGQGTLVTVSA VL: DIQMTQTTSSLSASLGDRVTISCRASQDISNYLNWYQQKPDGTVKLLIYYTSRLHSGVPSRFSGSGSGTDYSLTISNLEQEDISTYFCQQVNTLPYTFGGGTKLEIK . Value?
**A:** 7.97
